Test: Cell viability assay (CellTiter-Glo) in Jurkat cells
Assay type: cell-based
Settings: human, Jurkat cells; 72 h; 100 nM; Fig. 4k; read-out: Relative cell viability (%)
Experimental: Jurkat cells (3 × 10^3) and Hep G2 cells (3.5 × 10^3) were seeded in 96-well plates in 100 μL culture medium. […] After adding 40 μl of CellTiter-Glo® reagent (Promega, G7571) to each well for 10 min at room temperature, the luminescence was measured on a Spark® Multimode Microplate Reader (Tecan). The data was analyzed by the GraphPad Prism 9.0.
The entries below are paired with their reported viability at 72 h, 0.1 µM.
Measurement type: viability at 72 h, 0.1 µM (%)

>  <Molecule>
Cc1sc2c(c1C)C(c1ccc(Cl)cc1)=NC(CC(=O)NCCOCCOCCOCCOCCNC(=O)COc1c(Br)cc(CC3C(=O)Nc4ccc(Br)cc43)cc1Br)c1nnc(C)n1-2 (stereo not drawn)

>  <Reported value>
92.6

$$$$
>  <Molecule>
O=C1Nc2ccc(Br)cc2C1=Cc1cc(Br)c(O)c(Br)c1

>  <Reported value>
93.4

$$$$
>  <Molecule>
Cc1sc2c(c1C)C(c1ccc(Cl)cc1)=NC(CC(=O)NCCOCCOCCOCCOc1c(Br)cc(C=C3C(=O)Nc4ccc(Br)cc43)cc1Br)c1nnc(C)n1-2 (stereo not drawn)

>  <Reported value>
70.8

$$$$
